target: full-length TcdB (TcdB1-2366), VPI10463 (Clostridioides difficile strain VPI10463, UniProt P18177 1-2366); test: cell-based or functional assay
Sequence (P18177 whole entry): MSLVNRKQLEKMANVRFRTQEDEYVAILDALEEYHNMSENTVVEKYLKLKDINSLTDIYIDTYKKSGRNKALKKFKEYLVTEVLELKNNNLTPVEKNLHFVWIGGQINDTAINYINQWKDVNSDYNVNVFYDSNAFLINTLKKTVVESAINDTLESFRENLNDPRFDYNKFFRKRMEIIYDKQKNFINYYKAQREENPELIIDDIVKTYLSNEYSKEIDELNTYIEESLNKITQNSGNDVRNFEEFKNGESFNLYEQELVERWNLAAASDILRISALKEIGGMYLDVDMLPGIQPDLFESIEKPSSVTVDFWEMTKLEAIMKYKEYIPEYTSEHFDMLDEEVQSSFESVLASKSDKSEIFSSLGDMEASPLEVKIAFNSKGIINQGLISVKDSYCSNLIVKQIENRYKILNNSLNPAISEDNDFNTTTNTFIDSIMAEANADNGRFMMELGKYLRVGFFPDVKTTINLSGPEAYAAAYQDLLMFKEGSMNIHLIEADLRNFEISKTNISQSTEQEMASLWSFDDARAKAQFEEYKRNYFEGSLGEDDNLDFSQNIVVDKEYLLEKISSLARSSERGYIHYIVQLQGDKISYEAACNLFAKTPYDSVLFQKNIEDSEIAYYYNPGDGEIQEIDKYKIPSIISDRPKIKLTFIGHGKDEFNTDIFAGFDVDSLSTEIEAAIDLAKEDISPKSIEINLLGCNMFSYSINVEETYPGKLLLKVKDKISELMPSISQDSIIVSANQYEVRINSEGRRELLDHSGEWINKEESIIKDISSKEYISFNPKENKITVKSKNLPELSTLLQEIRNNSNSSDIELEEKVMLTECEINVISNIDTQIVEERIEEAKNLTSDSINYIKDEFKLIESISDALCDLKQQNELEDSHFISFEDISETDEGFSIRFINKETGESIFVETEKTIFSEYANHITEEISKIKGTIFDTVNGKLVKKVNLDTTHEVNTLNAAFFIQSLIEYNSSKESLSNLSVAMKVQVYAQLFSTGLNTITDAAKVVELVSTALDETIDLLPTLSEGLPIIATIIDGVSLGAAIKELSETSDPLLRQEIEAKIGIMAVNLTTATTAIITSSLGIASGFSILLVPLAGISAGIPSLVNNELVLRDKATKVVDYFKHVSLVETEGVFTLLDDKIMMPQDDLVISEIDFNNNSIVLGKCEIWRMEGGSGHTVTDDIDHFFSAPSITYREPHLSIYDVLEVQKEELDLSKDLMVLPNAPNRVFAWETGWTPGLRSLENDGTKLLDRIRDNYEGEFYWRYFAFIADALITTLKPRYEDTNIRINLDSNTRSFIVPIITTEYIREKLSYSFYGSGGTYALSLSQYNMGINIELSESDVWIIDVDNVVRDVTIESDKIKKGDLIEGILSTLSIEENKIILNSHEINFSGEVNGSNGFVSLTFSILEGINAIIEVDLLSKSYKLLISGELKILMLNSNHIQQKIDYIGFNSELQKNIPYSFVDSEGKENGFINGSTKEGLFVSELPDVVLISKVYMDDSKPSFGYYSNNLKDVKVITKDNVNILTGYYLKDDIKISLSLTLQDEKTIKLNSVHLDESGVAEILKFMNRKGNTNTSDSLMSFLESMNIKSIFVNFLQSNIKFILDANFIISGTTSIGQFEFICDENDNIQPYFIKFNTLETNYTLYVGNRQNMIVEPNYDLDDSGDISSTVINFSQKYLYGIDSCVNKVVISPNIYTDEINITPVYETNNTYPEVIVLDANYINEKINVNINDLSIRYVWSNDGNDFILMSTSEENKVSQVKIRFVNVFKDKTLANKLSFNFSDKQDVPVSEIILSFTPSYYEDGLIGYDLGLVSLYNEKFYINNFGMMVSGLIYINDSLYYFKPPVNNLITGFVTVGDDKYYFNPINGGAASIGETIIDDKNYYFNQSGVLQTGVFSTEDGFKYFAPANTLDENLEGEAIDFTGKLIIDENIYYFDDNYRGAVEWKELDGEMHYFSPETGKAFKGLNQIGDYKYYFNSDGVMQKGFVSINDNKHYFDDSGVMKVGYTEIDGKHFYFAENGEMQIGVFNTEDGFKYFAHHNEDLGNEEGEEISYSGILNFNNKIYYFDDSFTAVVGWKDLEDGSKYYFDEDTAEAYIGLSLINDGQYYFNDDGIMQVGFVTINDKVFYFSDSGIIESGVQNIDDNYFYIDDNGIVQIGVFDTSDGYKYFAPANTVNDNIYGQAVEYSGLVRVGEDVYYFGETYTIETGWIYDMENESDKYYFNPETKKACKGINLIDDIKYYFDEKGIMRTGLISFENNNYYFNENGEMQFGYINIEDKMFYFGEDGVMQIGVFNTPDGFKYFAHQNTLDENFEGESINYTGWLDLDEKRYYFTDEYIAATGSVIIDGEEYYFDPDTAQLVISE
MEASUREMENT KIND: EC50 (nM), TcdB neutralization, Caco-2 cells

{"columns": ["BINDER", "MEASURED VALUE"],
 "data": [
  ["B0E2 (VHH) VHH: QVQLQESGGGLVLPGGSLRLSCAASGTVFKIYVMGWYRQAPGKQRELVATISNGGTPNYADSVKGRFTISGDRAKNTVFLQMSSLNVEDTAVYYCNRRQLEGRQSEDYWGQGTQVTVSS", "< 1 nM"],
  ["B0C10 (VHH) VHH: QVQLQESGGGLVQPGGSLRLSCTASGFTRKHYTIGWFRQAPGKEREGVSCITTPDNSTYYKDSVKGRFTISRDNAKNTVYLQMNNVKPEDTAVYYCGASALGGSSCAQSSSVLHRLFQWGQGTQVTVSS", "< 1 nM"],
  ["B0B11 (VHH) VHH: QVQLQESGGGLVQPGGSLRLSCATSGFYFPNYAMSWHRQAPGQERELVARITSAGGSTDYADSVKGRFTISRDNSKNTVYLQMNGLISEDTAVYYCNADPSYGTRYWGQGTQVTVSS", "161 nM"]
]}
